The reported numbers originate from ChEMBL document CHEMBL5316326.

biological target: Histone-lysine N-methyltransferase EZH2 (Homo sapiens); assay: Inhibition of wild type EZH2 (unknown origin) by AlphaLlSA assay
Sequence (Q15910 whole entry): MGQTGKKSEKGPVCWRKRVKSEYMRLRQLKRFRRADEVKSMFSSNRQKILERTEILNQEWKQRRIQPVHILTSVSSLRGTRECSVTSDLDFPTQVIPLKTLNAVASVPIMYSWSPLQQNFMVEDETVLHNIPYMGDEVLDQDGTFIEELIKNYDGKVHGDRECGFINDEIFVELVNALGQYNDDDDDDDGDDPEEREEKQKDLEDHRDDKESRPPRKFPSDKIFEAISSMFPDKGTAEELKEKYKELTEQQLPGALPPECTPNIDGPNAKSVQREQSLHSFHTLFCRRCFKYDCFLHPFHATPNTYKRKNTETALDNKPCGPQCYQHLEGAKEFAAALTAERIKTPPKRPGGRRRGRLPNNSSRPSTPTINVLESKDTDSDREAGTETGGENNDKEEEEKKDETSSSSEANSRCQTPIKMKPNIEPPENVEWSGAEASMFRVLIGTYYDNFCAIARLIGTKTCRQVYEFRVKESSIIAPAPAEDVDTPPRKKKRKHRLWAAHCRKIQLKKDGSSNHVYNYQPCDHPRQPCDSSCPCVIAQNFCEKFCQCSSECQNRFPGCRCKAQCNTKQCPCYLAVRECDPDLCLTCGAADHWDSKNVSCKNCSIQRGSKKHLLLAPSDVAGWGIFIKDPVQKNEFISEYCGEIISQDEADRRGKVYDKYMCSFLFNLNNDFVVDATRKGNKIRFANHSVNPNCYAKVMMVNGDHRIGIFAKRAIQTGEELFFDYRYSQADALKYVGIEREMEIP
pIC50: −log10 of the molar value.
quantityMeasured: pIC50

- C=CC(=O)Nc1ccc(C)c(-c2cc(C(=O)NCc3c(C)cc(C)[nH]c3=O)c(C)c(N(CC)C3CCOCC3)c2)c1: 8.76

1. CCC(=O)Nc1ccc(C)c(-c2cc(C(=O)NCc3c(C)cc(C)[nH]c3=O)c(C)c(N(CC)C3CCOCC3)c2)c1
2. C=CC(=O)Nc1cccc(-c2cc(C(=O)NCc3c(C)cc(C)[nH]c3=O)c(C)c(N(CC)C3CCOCC3)c2)c1
3. C=CC(=O)NCc1ccc(-c2cc(C(=O)NCc3c4c(c(C)[nH]c3=O)CCCC4)c(C)c(N(CC)C3CCOCC3)c2)cc1
4. CCOCCNC(=O)/C(C)=C/C[C@@]12OC(C)(C)C3C[C@@H](C=C4C(=O)c5c(O)c(C/C=C(\C)CCC=C(C)C)c(O)c(CC=C(C)C)c5O[C@]431)C2=O (single isomer, unassigned)
Rank the items in ascending order with respect to pIC50. Arrange the labels as the request states and list them.
4, 3, 1, 2

----------
experiment: MRT(t) in Sprague-Dawley rat at 100 mg/kg, po and measured upto 24 hrs by LC-MS/MS analysis; type: ADME, organism-based; details: in vivo
quantityMeasured: MRT last at 24 h (h)
# output: bare number, implied unit h

Input C=CC(=O)Nc1ccc(C)c(-c2cc(C(=O)NCc3c(C)cc(C)[nH]c3=O)c(C)c(N(CC)C3CCOCC3)c2)c1 , output reported MRT last at 24 h.
1.73

----------
assay: Protein binding in Sprague-Dawley rat plasma at 2 uM incubated for 5 hrs by equilibrium dialysis based LC-MS/MS analysis; assay type: ADME, cell-free; settings: read-out: PPB (converted)
quantityMeasured: fraction unbound at 5 h, 2 µM
Kindly provide the number alone.

Recall and state the measured fraction unbound at 5 h, 2 µM for C=CC(=O)Nc1ccc(C)c(-c2cc(C(=O)NCc3c(C)cc(C)[nH]c3=O)c(C)c(N(CC)C3CCOCC3)c2)c1 .
0.0022

----------
target: Histone-lysine N-methyltransferase EZH2 (Homo sapiens); assay: Inhibition of EZH2 methyltransferase activity in human A2780 cells assessed as reduction in H3K27me3 level incubated for 3 days by Western blot analysis; format: cell-based
quantityMeasured: IC50 (nM)

1. C=CC(=O)Nc1ccc(C)c(-c2cc(C(=O)NCc3c(C)cc(C)[nH]c3=O)c(C)c(N(CC)C3CCOCC3)c2)c1
2. CCC(=O)Nc1ccc(C)c(-c2cc(C(=O)NCc3c(C)cc(C)[nH]c3=O)c(C)c(N(CC)C3CCOCC3)c2)c1
When their IC50 values are compared, which is larger, 1 or 2 ? Respond using the label that marks the chosen record.
2

----------
system: PA-1; assay: Antiproliferative activity against human PA-1 cells assessed as inhibition of cell proliferation incubated for 72 hrs by MTT assay; type: functional, cell-based; settings: PA-1, 72 h
quantityMeasured: pIC50
Interpret pIC50 as the negative base-10 log of the concentration measured in mol/L.

Solved cases below.
• CCC(=O)Nc1ccc(C)c(-c2cc(C(=O)NCc3c(C)cc(C)[nH]c3=O)c(C)c(N(CC)C3CCOCC3)c2)c1 = 4.11
• C=CC(=O)Nc1cccc(-c2cc(C(=O)NCc3c(C)cc(C)[nH]c3=O)c(C)c(N(CC)C3CCOCC3)c2)c1 = 4.61
• CCN(c1cc(-c2ccc(CN3CCOCC3)cc2)cc(C(=O)NCc2c(C)cc(C)[nH]c2=O)c1C)C1CCOCC1 [TAZEMETOSTAT] = 4.33
• CC[C@H](C)n1cc(C)c2c(C(=O)NCc3c(C)cc(C)[nH]c3=O)cc(-c3ccc(N4CCNCC4)nc3)cc21 [GSK2816126] = 4.91

State pIC50 on PA-1. Entry: C=CC(=O)Nc1ccc(C)c(-c2cc(C(=O)NCc3c(C)cc(C)[nH]c3=O)c(C)c(N(CC)C3CCOCC3)c2)c1
5.00
